Target: PI3K delta (Homo sapiens, UniProt O00329)
Construct: for the full-length p110-d subunit are generated and fused by overlapping PCR; His tag (C); Tn5 (Trichoplusia ni) or TiniPro insect cells
Sequence (O00329 with tags, fused parts or gaps limits assumed): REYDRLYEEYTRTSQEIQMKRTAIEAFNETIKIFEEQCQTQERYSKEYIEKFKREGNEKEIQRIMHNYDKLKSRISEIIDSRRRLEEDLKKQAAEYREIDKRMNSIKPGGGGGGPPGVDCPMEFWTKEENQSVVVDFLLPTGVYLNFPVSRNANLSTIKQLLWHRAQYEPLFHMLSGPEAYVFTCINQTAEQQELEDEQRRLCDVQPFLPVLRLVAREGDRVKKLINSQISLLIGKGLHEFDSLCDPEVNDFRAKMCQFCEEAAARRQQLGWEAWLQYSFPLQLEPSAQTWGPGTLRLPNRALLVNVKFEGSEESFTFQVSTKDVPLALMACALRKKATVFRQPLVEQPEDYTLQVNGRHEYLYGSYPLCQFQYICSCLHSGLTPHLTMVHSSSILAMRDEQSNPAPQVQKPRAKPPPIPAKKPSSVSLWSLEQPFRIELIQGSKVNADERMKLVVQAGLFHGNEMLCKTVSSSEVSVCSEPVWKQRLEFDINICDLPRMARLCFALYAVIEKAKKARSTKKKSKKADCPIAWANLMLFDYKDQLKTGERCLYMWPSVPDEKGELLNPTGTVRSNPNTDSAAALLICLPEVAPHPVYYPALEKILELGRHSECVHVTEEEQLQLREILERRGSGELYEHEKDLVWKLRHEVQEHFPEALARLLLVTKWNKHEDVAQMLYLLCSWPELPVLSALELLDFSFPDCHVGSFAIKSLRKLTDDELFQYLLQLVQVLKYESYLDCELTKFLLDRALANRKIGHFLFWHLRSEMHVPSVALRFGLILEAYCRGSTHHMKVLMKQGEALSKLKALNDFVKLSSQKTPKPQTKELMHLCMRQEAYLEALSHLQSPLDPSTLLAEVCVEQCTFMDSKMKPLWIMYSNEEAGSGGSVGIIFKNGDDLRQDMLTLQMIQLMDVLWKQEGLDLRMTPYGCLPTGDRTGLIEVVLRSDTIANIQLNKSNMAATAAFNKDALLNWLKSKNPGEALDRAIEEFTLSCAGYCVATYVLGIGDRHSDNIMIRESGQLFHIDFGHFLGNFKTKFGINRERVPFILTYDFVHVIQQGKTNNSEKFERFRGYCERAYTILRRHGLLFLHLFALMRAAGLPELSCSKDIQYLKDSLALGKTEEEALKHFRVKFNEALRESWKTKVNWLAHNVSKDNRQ
Test: PI3 kinase assay (Kinase-Glo luminescence), PI3K delta
Settings: Enzymatic Data; read-out: PI3K delta IC50 [umol]
Procedure: In a more preferred assay, the kinase reaction is performed in a final volume of 10 μL per well of a low volume non binding CORNING, 384 well black plate (Cat. No. #3676). The final concentrations of ATP and phosphatidyl inositol (PI) in the assay are 1 μM and 10 μg/mL respectively. […] […] is determined by a four parameter curve fitting routine that comes aloneg with “excel fit”. […] Alternatively, IC50 values are calculated using idbsXLfit model 204, which is a 4 parameter logistic model. […]
READOUT TYPE: IC50 (nM)
Write the number in nM without appending the unit.

# MOLECULE, VALUE
rows = [
    ("COc1cc(-c2ccc3ncc(-c4cnc(N)c(C(F)(F)F)c4)n3n2)ccc1OCCCNC(=O)C(C)C [Example 51]", 886),
]

IC50 reported for this molecule COc1ccc(-c2ccc3ncc(-c4cnc(N)c(OC)n4)n3n2)cc1OC [Example 68] : 26

Data point: COc1cc(-c2cnc3ccc(-c4cnc(N)c(C(F)(F)F)c4)nn23)ccc1C(=O)NCCCN1CCOCC1 [Example 125] ; IC50 = 55

So, NCCCOc1ccc(-c2cnc3ccc(-c4cnc(N)c(C(F)(F)F)c4)nn23)cc1 [Example 141] ? Its IC50 was 201
